target: T1, human CCR8 (human, UniProt P51685 1-355); experiment: flow blocking, PBMC CCR8+CD3+; competitor PE-L263G8
T1 construct: Native CCR8 on human PBMC (CCR8+ CD3+ or CCR8+ CD4+ lymphocytes); also called chemokine (C-C motif) receptor 8
T1 sequence (P51685 whole entry): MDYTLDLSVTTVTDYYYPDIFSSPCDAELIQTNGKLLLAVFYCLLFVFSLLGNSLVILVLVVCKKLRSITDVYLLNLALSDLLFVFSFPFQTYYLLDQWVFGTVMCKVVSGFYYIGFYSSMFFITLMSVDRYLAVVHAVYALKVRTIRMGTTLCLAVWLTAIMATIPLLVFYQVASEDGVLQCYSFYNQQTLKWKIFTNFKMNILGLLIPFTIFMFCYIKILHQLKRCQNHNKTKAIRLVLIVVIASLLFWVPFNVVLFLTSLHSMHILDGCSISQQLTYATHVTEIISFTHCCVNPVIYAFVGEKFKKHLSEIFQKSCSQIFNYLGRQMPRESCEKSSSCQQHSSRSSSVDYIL
measured.parameter: % Blocking (%)
Express the result in % but write the number alone.

[[record]]
binder = "AB6 (antibody, V domains shown, Hybridoma monoclonal; Same VH/VL entries as AB5; also called antibody 6; clone 6) VH: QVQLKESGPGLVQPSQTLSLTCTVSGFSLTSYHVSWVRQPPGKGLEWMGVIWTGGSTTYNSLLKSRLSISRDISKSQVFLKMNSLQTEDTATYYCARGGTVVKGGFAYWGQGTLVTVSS VL: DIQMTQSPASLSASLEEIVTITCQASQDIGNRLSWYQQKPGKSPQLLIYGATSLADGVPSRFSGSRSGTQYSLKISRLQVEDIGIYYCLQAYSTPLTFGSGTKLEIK"
result = -16.3

[[record]]
binder = "AB13 (antibody, V domains shown, Hybridoma monoclonal; also called antibody 13; clone 13) VH: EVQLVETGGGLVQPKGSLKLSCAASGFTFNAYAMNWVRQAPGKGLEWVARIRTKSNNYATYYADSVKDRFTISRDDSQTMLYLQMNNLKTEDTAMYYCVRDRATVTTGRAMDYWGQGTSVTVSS VL: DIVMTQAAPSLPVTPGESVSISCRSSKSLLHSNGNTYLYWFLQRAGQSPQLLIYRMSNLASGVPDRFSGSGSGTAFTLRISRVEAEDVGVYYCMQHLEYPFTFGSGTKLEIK"
result = 11.8


Attention now turns to another entry.
State the recorded % Blocking for this entry: AB8 (antibody, V domains shown, Hybridoma monoclonal; also called antibody 8; clone 8) VH: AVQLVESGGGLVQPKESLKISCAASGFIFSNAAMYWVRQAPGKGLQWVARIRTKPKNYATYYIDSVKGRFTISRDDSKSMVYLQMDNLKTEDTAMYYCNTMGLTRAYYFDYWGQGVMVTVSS VL: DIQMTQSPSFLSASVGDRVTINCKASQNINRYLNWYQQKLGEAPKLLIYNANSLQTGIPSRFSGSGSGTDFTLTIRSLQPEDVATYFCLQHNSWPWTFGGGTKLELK
13.1
